SYSTEM UNDER TEST: USP8 Rhod domain (Homo sapiens)
Construct: USP8 Rhod (174–317) (UniProt: P40818); GST (cleaved yes); made in house; host or cells: Escherichia coli BL21-Gold (DE3)
Sequence (P40818 174-317): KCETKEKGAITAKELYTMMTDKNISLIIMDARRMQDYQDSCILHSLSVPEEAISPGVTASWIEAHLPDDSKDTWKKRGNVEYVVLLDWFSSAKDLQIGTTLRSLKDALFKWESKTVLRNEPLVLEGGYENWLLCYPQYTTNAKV
EXPERIMENT DESCRIPTION: Peptide-phage display-based deep mutational scanning (DMS), USP8 Rhod domain
Type: binding
MEASUREMENT PARAMETERS: ProP-PD pairs, bait USP8_Rhodanese__P40818_174_317; wild-type/mutant pair, wild type KIAA1614 569-584 GMERVLGGLSSPLRLL (wt_00013)
Items are presented alongside their recorded hit_pair_ratio.
No unit in the answer, please; the number alone is enough.

Please review the following examples before continuing.
>>> print(df.to_string())
   construct_sequence                system_under_test  measured_number
0    GMVRVLGGLSSPLRLL  USP8 Rhod domain (Homo sapiens)           160.99
1    GMERVLLGLSSPLRLL  USP8 Rhod domain (Homo sapiens)             3.42

Which hit_pair_ratio is listed for GMERVLMGLSSPLRLL ? -3.47

Which hit_pair_ratio is listed for GMERVNGGLSSPLRLL ? 321.97

Which hit_pair_ratio is listed for GMERWLGGLSSPLRLL ? -5.43

Which hit_pair_ratio is listed for GNERVLGGLSSPLRLL ? -3.41

* * *

Tested on: USP8 MIT domain
EXPERIMENT DESCRIPTION: Peptide-phage display-based deep mutational scanning (DMS), USP8 MIT domain
Type: binding, human
MEASUREMENT PARAMETERS: sheet S3.B_ProP-PD_pairs; bait USP8_MIT__P40818_1_142; ratio within the wild-type/mutant pair, larger over smaller averaged fraction (direction from fraction_wt and fraction_mut)
Hi! Could you tag entries with hit_pair_ratio below 3 as 1.0, and those at or above as 0.0? Much appreciated.

Worked examples follow.
   construct_sequence  answer_label
0    WEVSDIESRIAALRAA           0.0
1    SRVSDIESRIAALRAA           0.0
2    MDDDYEAYSSLFLSLL           0.0
3    SPVSDIESRIAALRAA           1.0
4    MDDDYEAYHHLFLSLL           0.0

Strictly below 3 in hit_pair_ratio? TEVSDIESRIAALRAA 0.0

Strictly below 3 in hit_pair_ratio? SHVSDIESRIAALRAA 1.0

* * *

System: USP8 MIT domain
EXPERIMENT DESCRIPTION: Peptide-phage display-based deep mutational scanning (DMS), USP8 MIT domain
Type: binding, human
MEASUREMENT PARAMETERS: sheet S3.B_ProP-PD_pairs; bait USP8_MIT__P40818_1_142; ratio within the wild-type/mutant pair, larger over smaller averaged fraction (direction from fraction_wt and fraction_mut)
Classification field: criterion met = hit_pair_ratio at or over 20; criterion not met = hit_pair_ratio under 20.

Worked examples follow.
In [3]: df
Out[3]:
   construct_sequence       answer_label
0    MDDDYEAYYSLFLSLL      criterion met
1    MDDDYEAIHSLFLSLL      criterion met
2    MDDDYEAYHGLFLSLL  criterion not met
3    MDDDYEAYHSLFLSAL      criterion met
4    MDDDYEAYHMLFLSLL  criterion not met

Is the recorded value of hit_pair_ratio equal to or greater than 20 for this sequence? MDDDYEAYHLLFLSLL criterion not met

Is the recorded value of hit_pair_ratio equal to or greater than 20 for this sequence? SEFSDIESRIAALRAA criterion not met

Is the recorded value of hit_pair_ratio equal to or greater than 20 for this sequence? MDDDYEAYWSLFLSLL criterion met

Is the recorded value of hit_pair_ratio equal to or greater than 20 for this sequence? MDDDYEAYHSLFLALL criterion not met

Is the recorded value of hit_pair_ratio equal to or greater than 20 for this sequence? MDDDYEAYHQLFLSLL criterion met

Is the recorded value of hit_pair_ratio equal to or greater than 20 for this sequence? MDDDYEAYHRLFLSLL criterion met

Is the recorded value of hit_pair_ratio equal to or greater than 20 for this sequence? MDDDYEAYHSLFLPLL criterion met

* * *

Items are presented alongside their recorded hit_pair_ratio.
SYSTEM UNDER TEST: USP8 Rhod domain (Homo sapiens, UniProt P40818)
Construct: USP8 Rhod (174–317) (UniProt: P40818); GST (cleaved yes); made in house; host or cells: Escherichia coli BL21-Gold (DE3)
EXPERIMENT DESCRIPTION: Peptide-phage display-based deep mutational scanning (DMS), USP8 Rhod domain
Type: binding
MEASUREMENT PARAMETERS: ProP-PD pairs, bait USP8_Rhodanese__P40818_174_317; wild-type/mutant pair, wild type KIAA1614 569-584 GMERVLGGLSSPLRLL (wt_00013)
No unit in the answer, please; the number alone is enough.

   construct_sequence  measured_number
0    GMERVLVGLSSPLRLL            -3.34
1    YMERVLGGLSSPLRLL            10.06

# query: hit_pair_ratio | item GMDRVLGGLSSPLRLL | system: USP8 Rhod domain (Homo sapiens, UniProt P40818) -1.75

# query: hit_pair_ratio | item GMERVLGDLSSPLRLL | system: USP8 Rhod domain (Homo sapiens, UniProt P40818) 321.97

# query: hit_pair_ratio | item GWERVLGGLSSPLRLL | system: USP8 Rhod domain (Homo sapiens, UniProt P40818) 3.37

# query: hit_pair_ratio | item GMERVLGGTSSPLRLL | system: USP8 Rhod domain (Homo sapiens, UniProt P40818) -7.40

# query: hit_pair_ratio | item KMERVLGGLSSPLRLL | system: USP8 Rhod domain (Homo sapiens, UniProt P40818) 10.10

# query: hit_pair_ratio | item GMENVLGGLSSPLRLL | system: USP8 Rhod domain (Homo sapiens, UniProt P40818) 107.32

# query: hit_pair_ratio | item GMERVSGGLSSPLRLL | system: USP8 Rhod domain (Homo sapiens, UniProt P40818) 321.97

# query: hit_pair_ratio | item GEERVLGGLSSPLRLL | system: USP8 Rhod domain (Homo sapiens, UniProt P40818) -32.83

* * *

SYSTEM UNDER TEST: USP8 Rhod domain (Homo sapiens)
Construct: USP8 Rhod (174–317) (UniProt: P40818); GST (cleaved yes); made in house; host or cells: Escherichia coli BL21-Gold (DE3)
Sequence (P40818 174-317): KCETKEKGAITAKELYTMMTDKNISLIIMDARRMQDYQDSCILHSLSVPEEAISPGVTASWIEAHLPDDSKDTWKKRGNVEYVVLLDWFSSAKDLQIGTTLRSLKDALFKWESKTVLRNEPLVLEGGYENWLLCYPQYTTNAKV
EXPERIMENT DESCRIPTION: Peptide-phage display-based deep mutational scanning (DMS), USP8 Rhod domain
Format: binding
MEASUREMENT PARAMETERS: ProP-PD pairs, bait USP8_Rhodanese__P40818_174_317; wild-type/mutant pair, wild type KIAA1614 569-584 GMERVLGGLSSPLRLL (wt_00013)
MEASURED PARAMETER: hit_pair_ratio
No unit in the answer, please; the number alone is enough.

>>> print(df.to_string())
   construct_sequence  measured_number
0    GMNRVLGGLSSPLRLL             2.27
1    GMERTLGGLSSPLRLL            -5.12
2    GHERVLGGLSSPLRLL            -7.73
3    GMERVFGGLSSPLRLL           321.97
4    GMERELGGLSSPLRLL           -10.69

Which hit_pair_ratio is listed for GMERVLNGLSSPLRLL ? -1.21

Which hit_pair_ratio is listed for GMERMLGGLSSPLRLL ? -1.32

Which hit_pair_ratio is listed for GMERVLGGNSSPLRLL ? 1.15

Which hit_pair_ratio is listed for GIERVLGGLSSPLRLL ? -4.51

Which hit_pair_ratio is listed for GMERFLGGLSSPLRLL ? -9.37

Which hit_pair_ratio is listed for WMERVLGGLSSPLRLL ? 1.49

Which hit_pair_ratio is listed for GMQRVLGGLSSPLRLL ? 1.88

Which hit_pair_ratio is listed for GMSRVLGGLSSPLRLL ? 9.14

Which hit_pair_ratio is listed for GMERVLQGLSSPLRLL ? -3.38
